Molecular target: Serine/threonine-protein kinase TAO1 (Homo sapiens); also: in the data inactive means no Kd found up to 30 µM
Sequence (Q7L7X3 whole entry): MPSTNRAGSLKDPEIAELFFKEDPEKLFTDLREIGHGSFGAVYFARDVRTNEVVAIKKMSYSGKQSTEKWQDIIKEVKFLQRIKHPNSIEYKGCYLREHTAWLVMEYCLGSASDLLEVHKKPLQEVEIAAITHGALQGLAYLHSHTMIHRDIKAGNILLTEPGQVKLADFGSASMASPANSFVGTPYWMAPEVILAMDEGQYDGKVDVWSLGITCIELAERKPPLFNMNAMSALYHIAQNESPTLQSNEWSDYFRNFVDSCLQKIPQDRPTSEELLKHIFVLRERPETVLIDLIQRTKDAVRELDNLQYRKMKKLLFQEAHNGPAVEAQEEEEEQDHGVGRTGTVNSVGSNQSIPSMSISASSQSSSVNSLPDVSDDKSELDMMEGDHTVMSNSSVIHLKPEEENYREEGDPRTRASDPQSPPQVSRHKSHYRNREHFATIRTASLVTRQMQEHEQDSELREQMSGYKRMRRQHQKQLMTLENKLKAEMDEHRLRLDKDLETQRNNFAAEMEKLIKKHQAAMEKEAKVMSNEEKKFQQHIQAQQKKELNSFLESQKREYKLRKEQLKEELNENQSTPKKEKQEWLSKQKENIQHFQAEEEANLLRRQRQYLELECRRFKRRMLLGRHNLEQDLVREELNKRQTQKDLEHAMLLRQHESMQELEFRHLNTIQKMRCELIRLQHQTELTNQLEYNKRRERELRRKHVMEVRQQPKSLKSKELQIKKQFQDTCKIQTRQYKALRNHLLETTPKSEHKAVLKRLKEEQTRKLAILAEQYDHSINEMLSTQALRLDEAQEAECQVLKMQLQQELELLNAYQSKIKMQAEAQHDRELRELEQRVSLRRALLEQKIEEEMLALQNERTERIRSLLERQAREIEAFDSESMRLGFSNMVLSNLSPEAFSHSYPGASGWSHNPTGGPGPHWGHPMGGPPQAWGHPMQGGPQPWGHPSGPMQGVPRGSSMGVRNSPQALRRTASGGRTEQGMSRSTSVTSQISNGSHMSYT
Calls of active or inactive are those of the source.
Respond only with the outcome that fits, drawn from active, inactive

Look up the recorded call for CN1N=C(N)c2cn([C@@H]3O[C@H](COP(=O)(O)O)[C@@H](O)[C@H]3O)c3ncnc1c23 [TRICIRIBINE PHOSPHATE] in this test. inactive

Look up the recorded call for O=C1NC(=O)/C(=C/c2ccc3nccc(-c4ccncc4)c3c2)S1 [GSK-1059615] in this test. active

Look up the recorded call for COc1cc(N2CCC(N3CCN(C)CC3)CC2)ccc1Nc1ncnc(Nc2ccccc2S(=O)(=O)C(C)C)n1 [ASP-3026] in this test. inactive

Look up the recorded call for CC(C)Nc1cc(-c2c[nH]c(C(=O)N[C@H](CO)c3cccc(Cl)c3)c2)c(Cl)cn1 [ULIXERTINIB] in this test. active

Look up the recorded call for Cc1ccc(S(=O)(=O)Nc2nc3ccccc3nc2Nc2ccc3nsnc3c2)cc1 in this test. inactive

Look up the recorded call for Cc1cc2c(F)c(Oc3ncnn4cc(OC[C@@H](C)OC(=O)[C@H](C)N)c(C)c34)ccc2[nH]1 [BRIVANIB ALANINATE] in this test. inactive

Look up the recorded call for CNC(=O)c1cc(Oc2ccc(NC(=O)Nc3ccc(Cl)c(C(F)(F)F)c3)c(F)c2)ccn1 [REGORAFENIB] in this test. inactive

Look up the recorded call for CNS(=O)(=O)Nc1nccc(Cc2c(C)c3ccc(Oc4ncccn4)cc3oc2=O)c1F [AVUTOMETINIB] in this test. inactive

Look up the recorded call for O=C(O)[C@]1(Cc2cccc(Nc3nccs3)n2)CC[C@@H](Oc2cccc(Cl)c2F)CC1 [MK-5108] in this test. inactive

Look up the recorded call for COc1cc2nccc(Oc3ccc(NC(=O)NC4CC4)c(Cl)c3)c2cc1C(N)=O [LENVATINIB] in this test. inactive

Look up the recorded call for Cn1cc(-c2ccc(F)c(C(F)(F)F)c2)nc1C1CCN(c2ncnc3[nH]ncc23)CC1 [LY-2584702] in this test. inactive

Look up the recorded call for CNC(=O)CN1CCC(Oc2cc3c(Nc4cccc(Cl)c4F)ncnc3cc2OC)CC1 [SAPITINIB] in this test. inactive

Look up the recorded call for COc1cc(CCc2cc(NC(=O)c3ccc(N4C[C@@H](C)N[C@@H](C)C4)cc3)n[nH]2)cc(OC)c1 [AZD-4547] in this test. inactive

Look up the recorded call for Cc1ccc(NC(=O)c2ccc(CN3CC[C@H](N(C)C)C3)c(C(F)(F)F)c2)cc1Nc1nccc(-c2cncnc2)n1 [BAFETINIB] in this test. inactive

Look up the recorded call for CN1CC[C@@H](c2c(O)cc(O)c3c(=O)cc(-c4ccccc4Cl)oc23)[C@@H]1CO in this test. inactive

Look up the recorded call for CN(C)C(=O)c1cc2cnc(Nc3ccc(N4CCNCC4)cn3)nc2n1C1CCCC1 [RIBOCICLIB] in this test. inactive

Look up the recorded call for C1=C/COCc2cc(ccc2OCCN2CCCC2)Nc2nccc(n2)-c2cccc(c2)COC/1 [PACRITINIB] in this test. active

Look up the recorded call for CCS(=O)(=O)N1CC(CC#N)(n2cc(-c3ncnc4[nH]ccc34)cn2)C1 [BARICITINIB] in this test. inactive

Look up the recorded call for CNC(=O)c1ccc(-c2cnc3ncc(Cc4ccc5ncccc5c4)n3n2)cc1F [CAPMATINIB] in this test. inactive

Look up the recorded call for C[C@@H](c1ccc2nccn2c1)n1nnc2ncc(-c3cnn(C)c3)nc21 [SAVOLITINIB] in this test. inactive

Look up the recorded call for O=C(Nc1ccc(-c2ccnc(Nc3ccc(N4CCOCC4)cc3)n2)cc1)C1CCCN1 (stereo unspecified) [XL-019] in this test. inactive

Look up the recorded call for Cc1c(F)cc(C(=O)NC2CC2)cc1-c1ccc(C(=O)NCC(C)(C)C)cn1 [LOSMAPIMOD] in this test. inactive

Look up the recorded call for CC[C@@H]1C(=O)N(C)c2cnc(Nc3ccc(C(=O)N[C@H]4CC[C@H](N5CCN(CC6CC6)CC5)CC4)cc3OC)nc2N1C(C)C [VOLASERTIB] in this test. inactive

Look up the recorded call for O=c1sn(-c2cccc3ccccc23)c(=O)n1Cc1ccccc1 [TIDEGLUSIB] in this test. inactive

Look up the recorded call for CN1CCC(COc2cnc(-c3cccc(Cn4nc(-c5cccc(C#N)c5)ccc4=O)c3)nc2)CC1 [TEPOTINIB] in this test. inactive

Look up the recorded call for C[C@@H]1CN(Cc2ccc(F)cc2)[C@@H](C)CN1C(=O)c1cc2c(C(=O)C(=O)N(C)C)cn(C)c2cc1Cl [TALMAPIMOD] in this test. inactive
